# Tested on: Aβ43
# ASSAY_TEXT: Aβ43 in FAD1 iPS cell-derived nerve cells (secondary screening)
# Format: cell-based, human
# Set-up: scale not given here
# Method: To further study reproducibility of the candidate drugs obtained by the primary screening, secondary screening was conducted. In addition to Aβ40, Aβ42, Aβ42/40 ratio, Aβ38, Aβ43, sAPPα, sAPPβ were also studied and each numerical value was obtained.
We'd kindly ask you to apply these Aβ43 classes: band 1 (below 0.9), band 2 (0.9 to below 1), band 3 (1 or more)

CC(=O)Nc1cccc(O)c1 :: band 1
Nc1ccc(C(=O)O)c(O)c1 [compound 50, AMINOSALICYLATE] :: band 3
CN(C)CCc1c[nH]c2ccc(Cn3cncn3)cc12 :: band 3
Nc1c2c(nc3ccccc13)CCCC2 :: band 3
C[C@@H]1O[C@@H](OC[C@H]2O[C@@H](Oc3c(-c4ccc(OCCO)c(OCCO)c4)oc4cc(OCCO)cc(O)c4c3=O)[C@H](O)[C@@H](O)[C@@H]2O)[C@H](O)[C@H](O)[C@H]1O :: band 2
O=C(CCNNC(=O)c1ccncc1)NCc1ccccc1 [compound 34, NIALAMIDE] :: band 2
NCCc1cnc[nH]1 :: band 3
Cc1cccc(C)c1NC(=O)C1CCCCN1C (centres unmarked) [compound 2, MEPIVACAINE] :: band 1
CN1CCN(C2=Nc3ccccc3Oc3ccc(Cl)cc32)CC1 :: band 3
CN1CCN(C(c2ccccc2)c2ccccc2)CC1 :: band 3

# bin lookup: classify C#C[C@]1(O)CC[C@H]2[C@@H]3CCC4=Cc5oncc5C[C@]4(C)[C@H]3CC[C@@]21C by its Aβ43 band 3
